# Tested on: NCI-H23 lung
# PROTOCOL TEXT: NCI tumour cell line growth inhibition, 48 h; in the data active = GI50 below about 0.43 µM; inactive = the rest
Labels: yes for active, no for inactive

- COMPOUND: "O=c1oc2ccc(Cl)cc2c(=O)n1-c1ccc(I)cc1F"
  LABEL CLASS: "yes"
- COMPOUND: "CCc1c2c(nc3cccc(N)c13)-c1cc3c(c(=O)n1C2)COC(=O)[C@]3(O)CC"
  LABEL CLASS: "yes"
- COMPOUND: "Cc1cc(N2CCCC2)nc(N(CCCNc2ccnc3cc(Cl)ccc23)Cc2ccc3c(c2)OCO3)n1"
  LABEL CLASS: "no"
- COMPOUND: "Fc1ccc(Nc2nc(NCCNc3ccnc4cc(Cl)ccc34)nc(N3CCOCC3)n2)cc1"
  LABEL CLASS: "no"
- COMPOUND: "COc1cc(/C=C(/c2ccccc2)[N+](=O)[O-])c(OC)c2c1OCO2"
  LABEL CLASS: "no"
- COMPOUND: "CC(=O)OC1C2(CC3N4C(=O)C5(CO)SSC4(CC31O)C(=O)N5C)OC(C)C(C)(C)C2=O (stereo unspecified)"
  LABEL CLASS: "yes"
- COMPOUND: "CCOC(=O)c1cnn(-c2ccnc3c(C(F)(F)F)cccc23)c1N"
  LABEL CLASS: "no"
- COMPOUND: "Nc1nc(OCc2ccccc2)nc2[nH]ncc12"
  LABEL CLASS: "no"
- COMPOUND: "C=C(C)CCC(C)N1CCC(N2CCC(C(=O)NCCc3ccccc3)CC2)CC1 (stereo unspecified)"
  LABEL CLASS: "no"
- COMPOUND: "Clc1ccc2nc(Oc3ccccc3)cnc2c1"
  LABEL CLASS: "no"
- COMPOUND: "Cn1cc(-c2ccc3c(c2)CCN3C(=O)Cc2cccc(C(F)(F)F)c2)c2c(N)ncnc21"
  LABEL CLASS: "no"
- COMPOUND: "CCCCC[C@H]1C/C=C2/C(=O)C(Cl)=C[C@@H]2C/C=C\\CCCC(=O)O[C@@H](CCCCC)C/C=C2/C(=O)C(Cl)=C[C@@H]2C/C=C\\CCCC(=O)O1"
  LABEL CLASS: "yes"
- COMPOUND: "CCN1C(=O)N(CC)C2C1NN=c1s/c(=C3\\C(=O)N(C)c4ccccc43)c(=O)n12 (stereo unspecified)"
  LABEL CLASS: "no"
- COMPOUND: "CC(=O)C1=C([O-])C(C)OC1=O.CC(=O)C1=C([O-])C(C)OC1=O.[NH-]C1CCCC[C@H]1[NH-].[Pt+4] (stereo unspecified)"
  LABEL CLASS: "no"
- COMPOUND: "Oc1cc(Cl)ccc1Oc1ccc(Cl)cc1Cl"
  LABEL CLASS: "no"
- COMPOUND: "S=c1ssc(Sc2ccccn2)c1Cl"
  LABEL CLASS: "no"

====

TGI values by entry
# Tested on: 786-0 renal
# PROTOCOL TEXT: NCI tumour cell line growth inhibition, 48 h

- MOLECULE: "C/C1=C\\CC[C@@](C)(O)[C@@H]2CC3[C@@H](OC(=O)C34CC4)[C@@H](O2)[C@H](C)CCC1 (stereo partly drawn)"
  UNIT ABBREV: "µM"
  LIMIT SIGN: "="
  TGI: 29.8
- MOLECULE: "Cc1cccc(Nc2cn(CCOc3ccccc3)c(=O)n(CCOc3ccccc3)c2=O)c1"
  UNIT ABBREV: "µM"
  LIMIT SIGN: ">"
  TGI: 100
- MOLECULE: "COC(=O)[C@@]12OC[C@]34C([C@@H](O)C1O)[C@@]1(C)CC(=O)C(O)=C(C)C1C[C@H]3OC(=O)[C@H](OC(=O)CC(C)C(F)(F)F)[C@H]42 (stereo partly drawn)"
  UNIT ABBREV: "µM"
  LIMIT SIGN: "="
  TGI: 0.708
- MOLECULE: "CCCCCCCCCCCCC(=O)[O-].CCCCCCCCCCCCC(=O)[O-].CCCCCCCCCCCCC(=O)[O-].CCCCCCCCCCCCC(=O)[O-].[Mo+2].[Mo+2]"
  UNIT ABBREV: "µM"
  LIMIT SIGN: "="
  TGI: 16
- MOLECULE: "O=C1c2ccccc2C(=O)C1C(c1ccc([N+](=O)[O-])cc1)C1C(=O)c2ccccc2C1=O"
  UNIT ABBREV: "µM"
  LIMIT SIGN: ">"
  TGI: 100
- MOLECULE: "O=C(Nc1cc(Cl)c(Cl)cc1Cl)C(=O)C(C(=O)c1ccc(Cl)c(Cl)c1)C1OC(=O)c2ccccc21 (stereo not drawn)"
  UNIT ABBREV: "µM"
  LIMIT SIGN: "="
  TGI: 27.3
- MOLECULE: "O=[N+]([O-])c1ccc(CS(=O)Cc2ccccc2)cc1 (stereo not drawn)"
  UNIT ABBREV: "µM"
  LIMIT SIGN: ">"
  TGI: 100
- MOLECULE: "COc1ccc2c(c1)nc(N)c1c3cccnc3cn21"
  UNIT ABBREV: "µM"
  LIMIT SIGN: "="
  TGI: 16.7
- MOLECULE: "O=C1CCc2cc3c(cc21)CC1(Cc2ccccc2C1)C3"
  UNIT ABBREV: "µM"
  LIMIT SIGN: ">"
  TGI: 100
- MOLECULE: "O=C(CC(C(=O)c1cccs1)c1ccsc1)c1ccsc1 (stereo not drawn)"
  UNIT ABBREV: "µM"
  LIMIT SIGN: ">"
  TGI: 100
- MOLECULE: "Cc1ccc(NC(=O)CC(=O)n2nc(C)c(N=Nc3ccc(S(=O)(=O)CCOS(=O)(=O)O)cc3)c2C)cc1"
  UNIT ABBREV: "µM"
  LIMIT SIGN: ">"
  TGI: 100
- MOLECULE: "COC(=O)[C@@H]1CCCN1C(=O)[C@@H]1CCCN1C(=O)[C@@H](Cc1c[nH]c2ccccc12)NC(=S)Nc1cc(C(F)(F)F)cc(C(F)(F)F)c1"
  UNIT ABBREV: "µM"
  LIMIT SIGN: "="
  TGI: 20.1
- MOLECULE: "COc1cnc2c(c1)C(=O)c1c-2n(CCCN2CCCC2)c(=O)c2cc(Cl)ccc12"
  UNIT ABBREV: "µM"
  LIMIT SIGN: "="
  TGI: 9.66
- MOLECULE: "CN(C)C(=C1c2cc([N+](=O)[O-])ccc2-c2ccc([N+](=O)[O-])cc21)N(C)C"
  UNIT ABBREV: "µM"
  LIMIT SIGN: ">"
  TGI: 100
- MOLECULE: "O=C1CC2C(=O)N(Cc3ccccc3)C1C(S(=O)(=O)c1ccccc1)C2S(=O)(=O)c1ccccc1 (stereo not drawn)"
  UNIT ABBREV: "µM"
  LIMIT SIGN: "="
  TGI: 9.68
- MOLECULE: "COc1ccc(CSc2nc3ccccc3nc2-c2cccs2)cc1"
  UNIT ABBREV: "µM"
  LIMIT SIGN: ">"
  TGI: 100
- MOLECULE: "CC1=CCS(=O)(=O)C1C(O)C1=C(C)CCCC1(C)C (stereo not drawn)"
  UNIT ABBREV: "µM"
  LIMIT SIGN: ">"
  TGI: 100
- MOLECULE: "C=CCc1ccc(O)c(-c2cc(C3Oc4c(-c5cc(CC=C)ccc5O)cc(O)cc4[C@@H]3CO)ccc2O)c1 (stereo partly drawn)"
  UNIT ABBREV: "µM"
  LIMIT SIGN: ">"
  TGI: 100
